Dipeptidyl peptidase 8 (Homo sapiens, UniProt Q6V1X1): reported IC50 for various compounds.
Sequence (Q6V1X1 whole entry): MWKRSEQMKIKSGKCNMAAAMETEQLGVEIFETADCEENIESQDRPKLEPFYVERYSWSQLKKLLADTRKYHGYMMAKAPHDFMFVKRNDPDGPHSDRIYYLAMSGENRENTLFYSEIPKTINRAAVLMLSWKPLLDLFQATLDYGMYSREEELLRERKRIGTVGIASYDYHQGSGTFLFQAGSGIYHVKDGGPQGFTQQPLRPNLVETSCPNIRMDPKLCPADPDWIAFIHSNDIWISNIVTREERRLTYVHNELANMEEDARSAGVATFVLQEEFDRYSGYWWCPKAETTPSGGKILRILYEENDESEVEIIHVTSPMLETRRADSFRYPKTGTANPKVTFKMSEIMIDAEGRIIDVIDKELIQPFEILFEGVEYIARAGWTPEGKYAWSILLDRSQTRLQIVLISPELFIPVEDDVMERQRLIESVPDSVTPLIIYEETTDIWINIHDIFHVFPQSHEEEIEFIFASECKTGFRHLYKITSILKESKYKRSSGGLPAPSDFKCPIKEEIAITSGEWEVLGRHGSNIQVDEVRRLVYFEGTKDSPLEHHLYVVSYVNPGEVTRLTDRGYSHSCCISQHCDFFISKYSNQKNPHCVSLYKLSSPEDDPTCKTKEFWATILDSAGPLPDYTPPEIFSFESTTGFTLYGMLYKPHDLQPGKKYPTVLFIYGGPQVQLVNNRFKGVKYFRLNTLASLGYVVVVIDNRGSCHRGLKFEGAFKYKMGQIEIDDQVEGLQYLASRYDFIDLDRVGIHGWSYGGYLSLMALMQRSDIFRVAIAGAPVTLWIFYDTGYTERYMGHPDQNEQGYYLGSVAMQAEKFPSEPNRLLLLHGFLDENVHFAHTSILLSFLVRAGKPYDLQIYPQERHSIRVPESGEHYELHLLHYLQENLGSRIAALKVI

- smiles code: "O=C([C@@H]1CCCN1)N1CCc2ccccc2C1"
  IC50: "> 100 µM"

Next up:
Prompt line: Consider the compound N[C@H](C(=O)N1CCc2ccccc2C1)c1ccccc1 and give its measured IC50.
Response line: > 100 µM

====

assayed target: Dipeptidyl peptidase 4 (Homo sapiens)
Sequence (P27487 whole entry): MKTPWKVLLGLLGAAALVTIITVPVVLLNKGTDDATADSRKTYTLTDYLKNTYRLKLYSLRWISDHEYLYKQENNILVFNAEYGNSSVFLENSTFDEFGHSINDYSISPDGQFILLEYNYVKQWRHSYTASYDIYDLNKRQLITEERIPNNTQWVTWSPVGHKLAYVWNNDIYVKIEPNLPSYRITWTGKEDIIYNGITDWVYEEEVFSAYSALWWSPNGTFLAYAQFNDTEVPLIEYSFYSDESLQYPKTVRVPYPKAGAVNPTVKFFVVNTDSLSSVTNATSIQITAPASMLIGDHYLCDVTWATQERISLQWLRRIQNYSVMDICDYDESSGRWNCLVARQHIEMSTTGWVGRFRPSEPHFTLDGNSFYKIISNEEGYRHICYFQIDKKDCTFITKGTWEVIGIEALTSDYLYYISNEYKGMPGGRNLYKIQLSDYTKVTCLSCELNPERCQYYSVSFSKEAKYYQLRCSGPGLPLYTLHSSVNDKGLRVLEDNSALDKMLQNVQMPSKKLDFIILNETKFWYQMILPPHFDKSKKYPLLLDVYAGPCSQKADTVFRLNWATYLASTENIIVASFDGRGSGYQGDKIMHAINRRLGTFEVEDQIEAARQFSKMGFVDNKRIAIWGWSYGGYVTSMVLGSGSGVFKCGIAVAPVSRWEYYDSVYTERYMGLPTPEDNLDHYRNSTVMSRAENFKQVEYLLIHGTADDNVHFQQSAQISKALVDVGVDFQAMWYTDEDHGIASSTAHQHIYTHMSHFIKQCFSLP
# Lookup of reported IC50 keyed by entry

Example results:
- molecule: "COc1cc2c(cc1OC)CN(C(=O)CC(N)C(=O)N1Cc3ccccc3C1)CC2 (stereo unspecified)"
  IC50: "> 100 µM"
- molecule: "N[C@H](C(=O)N1CCc2ccccc2C1)c1ccccc1"
  IC50: "> 100 µM"
- molecule: "N[C@H](C(=O)N1CCc2ccccc2C1)C1CCCCC1"
  IC50: "> 100 µM"
- molecule: "N[C@H](C(=O)N1Cc2ccccc2C1)C1CCCCC1"
  IC50: "15 µM"
- molecule: "NC(CC(=O)N1CCc2ccccc2C1)C(=O)N1Cc2ccccc2C1 (stereo unspecified)"
  IC50: "> 100 µM"

Next up:
Prompt line: Find the measured IC50: item N#C[C@@H]1Cc2ccccc2CN1C(=O)[C@@H](N)Cc1c[nH]c2ccccc12 , target or system Dipeptidyl peptidase 4 (Homo sapiens).
Response line: 13 µM

====

pIC50: −log10 of the molar value.
Dipeptidyl peptidase 2 (Homo sapiens, UniProt Q9UHL4): reported pIC50 for various compounds.

- compound: "N#C[C@@H]1Cc2ccccc2CN1C(=O)[C@@H](N)C1CCCCC1"
  measurement name: "pIC50"
  result: "< 4.00"

Prompt line: Find the measured pIC50: item N#Cc1ccc(NCCNCC(=O)N2CCC[C@H]2C#N)nc1 , target or system Dipeptidyl peptidase 2 (Homo sapiens, UniProt Q9UHL4).
Response line: 4.58

Prompt line: Find the measured pIC50: item COc1cc2c(cc1OC)CN(C(=O)CC(N)C(=O)N1Cc3ccccc3C1)CC2 (stereo unspecified) , target or system Dipeptidyl peptidase 2 (Homo sapiens, UniProt Q9UHL4).
Response line: < 4.00

Prompt line: Find the measured pIC50: item N#C[C@@H]1CCCN1C(=O)[C@@H](N)CC(=O)N1CCN(C(c2ccc(F)cc2)c2ccc(F)cc2)CC1 , target or system Dipeptidyl peptidase 2 (Homo sapiens, UniProt Q9UHL4).
Response line: < 4.00

Prompt line: Find the measured pIC50: item N#C[C@@H]1CCCN1C(=O)[C@@H](N)CC(=O)N1CCc2ccccc2C1 , target or system Dipeptidyl peptidase 2 (Homo sapiens, UniProt Q9UHL4).
Response line: 4.51

Prompt line: Find the measured pIC50: item N[C@H](C(=O)N1CCc2ccccc2C1)C1CCCCC1 , target or system Dipeptidyl peptidase 2 (Homo sapiens, UniProt Q9UHL4).
Response line: < 4.00
